# Tested On: Man(a1-2)Man(a1-3)Man
# Experiment Summary: glycan array binding signal (z-score within array); higher = stronger binding
# Run Conditions: glycan notation: IUPAC condensed, linker removed
The entries come from a sample that favours the strongest signals as a whole.
Observed Property: glycan array binding signal (z-score)
Give your answer as a number; write no unit.

Inquiry: Look at this binder and give its reported glycan array binding signal (z-score). SBD-G4S3-Fc (protein) MASIPSSASVQLDSYNYDGSTFSGKIYVKNIAYSKKVTVVYADGSDNWNNNGNIIAASFSGPISGSNYEYWTFSASVKGIKEFYIKYEVSGKTYYDNNNSANYQVSTGGGGSGGGGSGGGGSEFVPRDCGCKPCICTVPEVSSVFIFPPKPKDVLTITLTPKVTCVVVDISKDDPEVQFSWFVDDVEVHTAQTQPREEQFNSTFRSVSELPIMHQDWLNGKEFKCRVNSAAFPAPIEKTISKTKGRPKAPQVYTIPPPKEQMAKDKVSLTCMITDFFPEDITVEWQWNGQPAENYKNTQPIMDTDGSYFVYSKLNVQKSNWEAGNTFTCSVLHEGLHNHHTEKSLSHSPGAA
Reply text: -0.16

Attribution: the supplement of paper PMC8728848
